- protocol_summary: Preliminary pharmacokinetic analyses of neratinib after oral administration
- Format: in vivo, human
- measurement_conditions: human, in vivo; day 1, after oral absorption; read-out: apparent volume of distribution (Vz/F)
experimental_endpoint: Vd/F

stdin: What measured Vd/F goes with CCOc1cc2ncc(C#N)c(Nc3ccc(OCc4ccccn4)c(Cl)c3)c2cc1NC(=O)/C=C/CN(C)C [neratinib] ?
stdout: 3190 to 6180 L

====

- protocol_summary: Preliminary pharmacokinetic analyses of neratinib after oral administration
- Type: in vivo, human
- measurement_conditions: human, in vivo; 240-mg dose group, oral daily; read-out: Mean steady-state AUC
experimental_endpoint: AUC (ng·h/mL)
Give the value in ng·h/mL but do not write ng·h/mL after it.

stdin: For the compound CCOc1cc2ncc(C#N)c(Nc3ccc(OCc4ccccn4)c(Cl)c3)c2cc1NC(=O)/C=C/CN(C)C [neratinib] , what AUC is on record?
stdout: 939

====

- protocol_summary: Preliminary pharmacokinetic analyses of neratinib after oral administration
- Format: in vivo, human
- measurement_conditions: human, in vivo; 400 mg (highest dose), oral daily; read-out: Mean steady-state AUC
experimental_endpoint: AUC (ng·h/mL)
Hi! Could you send only the number? It should be in ng·h/mL, unit omitted.

stdin: Which AUC reading was recorded for the compound "CCOc1cc2ncc(C#N)c(Nc3ccc(OCc4ccccn4)c(Cl)c3)c2cc1NC(=O)/C=C/CN(C)C" ?
stdout: 1700
